Molecular target: HLA-B*27:03
Assay: IEDB peptide-MHC binding, purified MHC/competitive/fluorescence; filed as Kd, often an IC50 or EC50 that approximates it; bounds were set here for any values at or beyond the usual limits of such assays
Conditions: source organism: Bacillus thuringiensis serovar israelensis ATCC 35646
pKd: −log10 of the molar value.
experimentalReadout: pKd

sequencecontent=ITMYVAFEQ datavalue="≤ 4.70"

---

Property: pKd; scope: individual sequences
Biological target: HLA-A*26:01
Experiment: IEDB peptide-MHC binding, purified MHC/competitive/radioactivity; filed as Kd, often an IC50 or EC50 that approximates it; bounds were set here for any values at or beyond the usual limits of such assays
Conditions: source organism: Dengue virus 4 Dominica/814669/1981
pKd: −log10 of the molar value.
experimentalReadout: pKd

sequencecontent=HTTERGGRAY experimentalreadout=pKd datavalue=6.46
sequencecontent=DTVTYKCPL experimentalreadout=pKd datavalue=5.90
